# testName: soluble on expression in E. coli; label from the status in PepcDB or PDB records
valueKind: soluble on expression in E. coli

# annotated cases, reported soluble on expression in E. coli shown
- sequenceInput: "MGSDKIHHHHHHMPGGGNGILYSNLAAVKEMKMNNLRVVIITGLSGSGKSTALRALEDIGFYCVDNMPVVLLPQFLEIQSDKSKDISQVAMVMDLREKSFIETYKGIFEQIKARGYKIEIVFLYATDDALLHRFSETRRVHPLSSVSIMEGIRLEREQLRALEEMADKVIDTTSCNVHQLKDIVQRHFLPSSTARRLFIHLISFGYRYGLPADADLVLDVRFLPNPYWVESLKSFNGHHQDVRRYVLSAEASSIFLQKLFDLMEFLIPLYEKEGKPRITIAVGCTGGKHRSVVMANELWSYFSGRDYPVNVNHRDVGKS"
  observed: "not soluble"
- sequenceInput: "MSLGSNKTIIINLNNLEHNLNLIKNKIGEKEIVATLKGDAYGHGLINIFKFLKSKNINYFGLSNIEDAKTLKKIDKNIKILMYIKVDKKEIKNLIKFELVPFVSDFEYLFLIEKECALQKNKIKVHLKIDIGMNRYGIKIDDALEIATYIQNSKFLELEGICSHLPSIENFKTTQKQIEQFLFFLETLKQKNIHPKFVHISNSGHIINYKLNPQFNMVRPGLILYGYCQSLKNKKPALNFKPVLSLFSKVIFIKNVKKGEKISYSGIFQAKEDMKIGIIPIGYFDGIPQNISNDFYFLINNKKCKIRGKVCMNLTIVEIPKDLKVKTGSKVEIVSEKLSIDEMSKFSKRSHYELLCNIGKYEKRKYLDEGHHHITTDPNSSSVDKLAAALEHHHHHH"
  observed: "soluble"
- sequenceInput: "MGSDKIHHHHHHMVKYSGVCILFGAGGGGENALSLLKLEGCNISAIVDNDLKKHNTFLDDTPIYAPEKLNCDLIFDKILIASGYSKSILAQLGQYNISQERIIVLPQYYLKPNRFSDQVLYSLAWDFIFSFSELMNKLNIRYWLDYGTLLGLVRDNDLISWDSDLDFCILDENKGYLINSFSVISEHISSTIGCDVKIELIKGAECEHSRVFISCNRDNVILDIDVFIKFNFSNFVCLEVMDRVERYNAEHYVAVDFLNVKGISLPVPNKYDQYLTRVYGSWCVANKEWTLYS"
  observed: "not soluble"
- sequenceInput: "GYQALEKYSRDLTALARAGKLDPVIGRDTEIRRAIQILSRRTKNNPILLGDPGVGKTAIVEGLAIKIVQGDVPDSLKGRKLVSLDLSSLIAGAKYRGDFEERLKSILKEVQDAEGQVVMFIDEIHTVVGAGAVAEGALDAGNILKPMLARGELRCIGATTVSEYRQFIEKDKALERRFQQILVEQPS"
  observed: "soluble"
- sequenceInput: "PNFSGNWKIIRSENFEELLKVLGVNVMLRKIAVAAASKPAVEIKQEGDTFYIKVSTTVRTTEINFKVGEEFEEQTVDGRPCKSLVKWESENKMVCEQKLLKGEGPKTSWTLELTNDGELIDTMTADDVVCTKVFVRE"
  observed: "soluble"

Let us examine a further case.
Query :: Given the entry MGSDKIHHHHHHMKRSKYQLGRIGRLTIDRIVSIGAYLDGGDTDILLPNRYLPSDAAPGMEVEVFVYHDNEGRLIATTMRPLVEVGQVALLHAVSVTDSGAYMEWGIHKDLFVPFREQTQLIREGGRYFVYAYIDHVSGKIVGSAKLSKHLGNIPPSYSPGDKVSALVYERIDPGYRMIVDHTHWGMIYSDTLPMPLAIGAQVKAFVIRLRDDGKIDLSLKPIGYDRIDSESERLLHMLQRRGGRLPIGDKSSPEEIMQHTGMSKKTFKMAVGMLYRRRLIRITPTAITLNETVSTPEA , report its measured soluble on expression in E. coli.
Result :: not soluble
